# study.system: MMP-2 (Homo sapiens)
# Construct: purchased SIGMA PF023
# Sequence (P08253 110-660): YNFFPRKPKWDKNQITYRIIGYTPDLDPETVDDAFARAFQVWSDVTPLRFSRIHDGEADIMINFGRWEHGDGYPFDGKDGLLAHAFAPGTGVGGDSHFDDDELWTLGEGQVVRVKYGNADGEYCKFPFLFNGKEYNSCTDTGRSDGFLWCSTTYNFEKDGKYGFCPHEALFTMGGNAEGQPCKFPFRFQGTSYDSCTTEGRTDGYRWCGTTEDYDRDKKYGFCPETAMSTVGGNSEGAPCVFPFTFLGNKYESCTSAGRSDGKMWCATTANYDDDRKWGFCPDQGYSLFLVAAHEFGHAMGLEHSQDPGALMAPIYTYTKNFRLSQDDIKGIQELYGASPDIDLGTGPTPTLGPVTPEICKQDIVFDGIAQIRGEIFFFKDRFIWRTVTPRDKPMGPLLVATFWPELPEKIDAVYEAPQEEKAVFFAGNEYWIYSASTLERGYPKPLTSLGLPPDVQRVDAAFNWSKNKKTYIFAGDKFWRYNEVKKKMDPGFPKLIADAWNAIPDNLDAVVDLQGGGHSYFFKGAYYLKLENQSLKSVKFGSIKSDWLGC
# test.details: FRET peptide cleavage efficiency with MMP-2
# Type: biochemical
# condition.set: t = 60 min; 200 uM linker, 1 ug/ml protease, 37° C., buffer C pH 7.5
Square brackets hold non-standard residues; d marks the D form. Ends that are not written are not given here. Tyr(3-NO2) = N[C@@H](Cc1ccc(O)c([N+](=O)[O-])c1)C(=O)O; 2Abz = Nc1ccccc1C(=O)O
measurement.name: % cleavage MMP-2 t = 60 min (%)
Give bare numbers, in %.

Please review the entries below; each comes with its answer.
SSQYSSPG ([2Abz]SSQYSSPG[Tyr(3-NO2)]-NH2) [LNK069]    6
SSRGRRGPYMLQG ([2Abz]SSRGRRGPYMLQG[Tyr(3-NO2)]-NH2) [LNK021]    66
RQRRSAAPLGLAG ([2Abz]RQRRSAAPLGLAG[Tyr(3-NO2)]-NH2) [LNK028]    99
SSRVFRKPANLAG ([2Abz]SSRVFRKPANLAG[Tyr(3-NO2)]-NH2) [LNK019]    99
HSSKLQL ([2Abz]HSSKLQL[Tyr(3-NO2)]-NH2) [LNK078]    6

Okay, here is my list. What is % cleavage MMP-2 t = 60 min for each of these?
1. RYGKSAPLGLAG ([2Abz]RYGKSAPLGLAG[Tyr(3-NO2)]-NH2) [LNK027]
2. SGRVLTLRKAALPLAM ([2Abz]SGRVLTLRKAALPLAM[Tyr(3-NO2)]-NH2) [LNK020]
3. HSSKLQYFGKL ([2Abz]HSSKLQYFGKL[Tyr(3-NO2)]-NH2) [LNK061]

## Result
99
98
74

## Task Fill in the recorded % cleavage MMP-2 t = 60 min for this substance, with MMP-2 (Homo sapiens) as test system: SGRVLTLRKAGPAGLVG ([2Abz]SGRVLTLRKAGPAGLVG[Tyr(3-NO2)]-NH2) [LNK011]
## Result 99

###

# study.system: MMP-2 (Homo sapiens, UniProt P08253)
# Construct: purchased SIGMA PF023
# Sequence (P08253 110-660): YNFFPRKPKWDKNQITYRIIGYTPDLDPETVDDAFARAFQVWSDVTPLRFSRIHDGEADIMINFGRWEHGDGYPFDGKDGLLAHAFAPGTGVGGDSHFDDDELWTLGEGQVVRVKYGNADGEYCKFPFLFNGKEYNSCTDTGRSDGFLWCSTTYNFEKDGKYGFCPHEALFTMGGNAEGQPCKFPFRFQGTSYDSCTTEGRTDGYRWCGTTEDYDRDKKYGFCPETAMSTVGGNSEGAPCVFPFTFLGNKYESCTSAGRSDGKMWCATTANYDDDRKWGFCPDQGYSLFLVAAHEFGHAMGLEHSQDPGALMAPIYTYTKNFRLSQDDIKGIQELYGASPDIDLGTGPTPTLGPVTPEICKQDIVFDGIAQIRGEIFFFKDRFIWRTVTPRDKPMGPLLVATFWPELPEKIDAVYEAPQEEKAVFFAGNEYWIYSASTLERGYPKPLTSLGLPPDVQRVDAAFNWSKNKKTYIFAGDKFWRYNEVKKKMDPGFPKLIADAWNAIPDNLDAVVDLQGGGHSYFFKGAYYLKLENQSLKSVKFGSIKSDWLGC
# test.details: FRET peptide cleavage efficiency with MMP-2
# Assay type: biochemical
# condition.set: pH 7.5; t = 15 min (Table 7)
Square brackets hold non-standard residues; d marks the D form. Ends that are not written are not given here. Tyr(3-NO2) = N[C@@H](Cc1ccc(O)c([N+](=O)[O-])c1)C(=O)O; 2Abz = Nc1ccccc1C(=O)O
measurement.name: % cleavage MMP-2 t = 15 min (%)
Give bare numbers, in %.

SGRVLRKAGPQPLVD ([2Abz]SGRVLRKAGPQPLVD[Tyr(3-NO2)]-NH2) [LNK003]    6

Each sequence below has a recorded value; state its % cleavage MMP-2 t = 15 min.
1. SGRVLRKAGPANLVG ([2Abz]SGRVLRKAGPANLVG[Tyr(3-NO2)]-NH2) [LNK014]
2. SGRVAGLVG ([2Abz]SGRVAGLVG[Tyr(3-NO2)]-NH2) [LNK016]
3. SSRGPYMLQG ([2Abz]SSRGPYMLQG[Tyr(3-NO2)]-NH2) [LNK022]

## Result
[100, 87, 36]
